Data provenance: PubChem BioAssay (NCATS)

- Tested on: HaCat
- PROTOCOL: Cytotoxic Profiling of Annotated Libraries Using Quantitative High-Throughput Screening (AID 1296008); further: nearly all actives have a fitted effect of over 60% in size
- ASSAY_SETUP: Five cell lines viability, CellTiter-Glo ATP luminescence, 48-72 h
- Experimental: Cell-based phenotypic screening is a commonly used approach to discover biological pathways, novel drug targets, chemical probes and high-quality hit-to-lead molecules. […] A pintool (Kalypsys) was used to transfer 23 nL of compound solution to the 1536-well assay plates. […] Plates were left at room temperature for 10 min before imaging the ATP-coupled luminescence using a ViewLux microplate imager (PerkinElmer, Waltham, MA).
Records with an inconclusive call do not appear. Active and inactive are the calls of the source. The call rests on the fitted dose curve; in most records, active means well fitted inhibition curve with a large enough effect; inconclusive means small, poorly fitted or top-dose-only effect; inactive means flat fitted curve, though single readings scatter.
Outcome codes: active, inactive

[[record]]
molecule = "CC(N)C(=O)OC(C)(C)Cc1ccc(Cl)cc1 (configuration not stated)"
assay_system = "HaCat"
classification = "inactive"

[[record]]
molecule = "COc1ccnc2c1CCCCC2S(=O)c1nc2ccccc2[nH]1 (configuration not stated)"
assay_system = "HaCat"
classification = "inactive"

[[record]]
molecule = "CCCCCCCC/C=C/C(=O)O"
assay_system = "HaCat"
classification = "inactive"

[[record]]
molecule = "Nc1ccc(O)c([N+](=O)[O-])c1"
assay_system = "HaCat"
classification = "inactive"

[[record]]
molecule = "CS(=O)(=O)c1ccc(-n2nc(C(F)(F)F)cc2-c2ccc(F)cc2)cc1"
assay_system = "HaCat"
classification = "inactive"

[[record]]
molecule = "Nc1ccc(C(=O)O)c(O)c1"
assay_system = "HaCat"
classification = "inactive"

[[record]]
molecule = "CC(C)(C)c1nnc(NS(=O)(=O)c2ccc(N)cc2)s1"
assay_system = "HaCat"
classification = "inactive"

[[record]]
molecule = "Nc1nc2ccc([N+](=O)[O-])cc2s1"
assay_system = "HaCat"
classification = "active"

[[record]]
molecule = "COc1cc(/C=C/C(=O)N2CCN(CC(=O)N3CCCC3)CC2)cc(OC)c1OC"
assay_system = "HaCat"
classification = "inactive"

[[record]]
molecule = "CCCCCCCCCCCCCCCCCC(=O)O"
assay_system = "HaCat"
classification = "inactive"

[[record]]
molecule = "CN1CCN(c2cc3c(nn2)Oc2ccccc2N3C)CC1"
assay_system = "HaCat"
classification = "inactive"

[[record]]
molecule = "COc1cccc2c1C(=O)c1c(O)c3c(c(O)c1C2=O)C[C@@](O)(C(=O)CO)C[C@@H]3O[C@H]1C[C@H](N)[C@H](O[C@@H]2CCCCO2)[C@H](C)O1"
assay_system = "HaCat"
classification = "active"

[[record]]
molecule = "Cc1cc(O)c2ccccc2c1O"
assay_system = "HaCat"
classification = "inactive"

[[record]]
molecule = "CN(C)c1ccc(C(=C2C=CC(=[N+](C)C)C=C2)c2ccccc2)cc1"
assay_system = "HaCat"
classification = "active"

[[record]]
molecule = "CN1CC(=O)N/C1=N/C(=O)Nc1cccc(Cl)c1"
assay_system = "HaCat"
classification = "inactive"

[[record]]
molecule = "Clc1ccccc1-c1nc(-c2ccncc2)no1"
assay_system = "HaCat"
classification = "inactive"

[[record]]
molecule = "CN1[C@@H]2CC[C@H]1CC(OC(c1ccccc1)c1ccccc1)C2 (some centres not stated)"
assay_system = "HaCat"
classification = "inactive"


---

- System: ATS95
- PROTOCOL: qHTS profiling for inhibitors of Plasmodium falciparum proliferation (AID 504749); further: nearly all actives have a fitted effect of over 60% in size
- ASSAY_SETUP: P. falciparum in erythrocytes, SYBR Green DNA, 72 h; series mostly up to 28.7 µM
Records with an inconclusive call do not appear. Calls of active or inactive are those of the source. Calls come from the whole dose curve; as a rule, active = well fitted inhibition curve with a large enough effect; inconclusive = small, poorly fitted or top-dose-only effect; inactive = flat fitted curve, though single readings scatter.
READOUT_LABEL: outcome

[[record]]
molecule = "O=C(O)COc1ccc(C(=O)c2cccs2)c(Cl)c1Cl"
assay_system = "ATS95"
readout_label = "outcome"
result = "inactive"

[[record]]
molecule = "O=C(OCc1ccccc1)c1ccccc1"
assay_system = "ATS95"
readout_label = "outcome"
result = "inactive"

[[record]]
molecule = "CC1OC1P(=O)(O)O (configuration not stated)"
assay_system = "ATS95"
readout_label = "outcome"
result = "inactive"

[[record]]
molecule = "O=C(Nc1ccc(C(=O)O)c(O)c1)c1ccccc1"
assay_system = "ATS95"
readout_label = "outcome"
result = "inactive"

[[record]]
molecule = "CCCCCCCCCCCC(=O)[O][Sn]([CH2]CCC)([CH2]CCC)[O]C(=O)CCCCCCCCCCC"
assay_system = "ATS95"
readout_label = "outcome"
result = "inactive"

[[record]]
molecule = "Cc1ccc(O)c(-n2nc3ccccc3n2)c1"
assay_system = "ATS95"
readout_label = "outcome"
result = "inactive"

[[record]]
molecule = "Cc1c(Nc2ncccc2C(=O)O)cccc1C(F)(F)F"
assay_system = "ATS95"
readout_label = "outcome"
result = "inactive"

[[record]]
molecule = "C=C(Nc1ccc(OCC)cc1)Nc1ccc(OCC)cc1"
assay_system = "ATS95"
readout_label = "outcome"
result = "inactive"

[[record]]
molecule = "Cc1[nH]cnc1CN1CCc2c(c3ccccc3n2C)C1=O"
assay_system = "ATS95"
readout_label = "outcome"
result = "inactive"

[[record]]
molecule = "CC1(C)C[C@@H]1C(=O)N/C(=C\\CCCCSC[C@H](N)C(=O)O)C(=O)O"
assay_system = "ATS95"
readout_label = "outcome"
result = "inactive"

[[record]]
molecule = "O=C(O)Cc1ccc(-c2ccccc2)cc1"
assay_system = "ATS95"
readout_label = "outcome"
result = "inactive"

[[record]]
molecule = "N=c1ccn2c(n1)O[C@H]1[C@H](O)[C@@H](CO)O[C@H]12"
assay_system = "ATS95"
readout_label = "outcome"
result = "inactive"


---

- System: P93_24
- PROTOCOL: qHTS profiling for inhibitors of Plasmodium falciparum proliferation (AID 504749); further: nearly all actives have a fitted effect of over 60% in size
- ASSAY_SETUP: P. falciparum in erythrocytes, SYBR Green DNA, 72 h; series mostly up to 28.7 µM
Inconclusive results are not listed. Calls of active or inactive are those of the source. Calls come from the whole dose curve; as a rule, active = well fitted inhibition curve with a large enough effect; inconclusive = small, poorly fitted or top-dose-only effect; inactive = flat fitted curve, though single readings scatter.
Outcome codes: true (1) = active, false (0) = inactive

[[record]]
compound = "CN1CCN(c2cc3c(nn2)Oc2ccccc2N3C)CC1"
classification = "false (0)"

[[record]]
compound = "O=C(OCc1ccccc1)c1ccccc1"
classification = "false (0)"

[[record]]
compound = "Cc1nc2ccccc2n1Cc1ccc(Cl)cc1"
classification = "false (0)"

[[record]]
compound = "CCCSc1ccc2nc(NC(=O)OC)[nH]c2c1"
classification = "false (0)"

[[record]]
compound = "C=CCN1C(=O)C(CC(C)C)NC1=S (configuration not stated)"
classification = "false (0)"

[[record]]
compound = "CN(C)c1ccc(C(=C2C=CC(=[N+](C)C)C=C2)c2ccccc2)cc1"
classification = "true (1)"

[[record]]
compound = "CC1(C)[C@@H](O)CC[C@]2(C)[C@H]3C(=O)C=C4[C@@H]5C[C@@](C)(C(=O)O)CC[C@]5(C)CC[C@@]4(C)[C@]3(C)CC[C@@H]12"
classification = "false (0)"

[[record]]
compound = "Cc1ccc(O)c(-n2nc3ccccc3n2)c1"
classification = "false (0)"

[[record]]
compound = "O=C(O)[C@H](CC(=O)N1C[C@H]2CCCC[C@H]2C1)Cc1ccccc1"
classification = "false (0)"

[[record]]
compound = "Cc1c(Nc2ncccc2C(=O)O)cccc1C(F)(F)F"
classification = "false (0)"

[[record]]
compound = "O=C(O)COc1ccc(C(=O)c2cccs2)c(Cl)c1Cl"
classification = "false (0)"

[[record]]
compound = "COc1cc2c3cc1Oc1cc(ccc1O)C[C@@H]1c4c(cc(OC)c(O)c4Oc4ccc(cc4)C[C@@H]3N(C)CC2)CC[N+]1(C)C"
classification = "false (0)"

[[record]]
compound = "C=CC(N)CCC(=O)O (configuration not stated)"
classification = "false (0)"

[[record]]
compound = "CCCCCCOc1ccccc1C(N)=O"
classification = "false (0)"

[[record]]
compound = "CCCCCCCCCCCCCCCC(=O)OC(C)C"
classification = "false (0)"

[[record]]
compound = "COc1ccc(/C=C/C(=O)Nc2ccccc2C(=O)O)cc1OC"
classification = "false (0)"

[[record]]
compound = "O=C(CCN1CCN(CCO)CC1)N1c2ccccc2Sc2ccc(C(F)(F)F)cc21"
classification = "true (1)"

[[record]]
compound = "CCOC(=O)c1ccccc1O"
classification = "false (0)"

[[record]]
compound = "CCCCCCCCCCCCCCCCCC(=O)O"
classification = "false (0)"

[[record]]
compound = "Oc1c(Br)cc(Br)c2cccnc12"
classification = "false (0)"

[[record]]
compound = "O=C(O)/C=C/C(O)c1ccc(Cl)cc1 (configuration not stated)"
classification = "false (0)"

[[record]]
compound = "O=C(O)[C@H](O)[C@@H](O)[C@H](O)[C@H](O)CO"
classification = "false (0)"

[[record]]
compound = "Nc1cc(-c2ccncc2)c[nH]c1=O"
classification = "false (0)"

[[record]]
compound = "Cc1[nH]cnc1CN1CCc2c(c3ccccc3n2C)C1=O"
classification = "false (0)"

[[record]]
compound = "CCCOC(=O)c1ccc(O)cc1"
classification = "false (0)"

[[record]]
compound = "Nc1ccc(C(=O)O)c(O)c1"
classification = "false (0)"

[[record]]
compound = "O=C(/C=C/c1ccccc1)NCCO"
classification = "false (0)"

